These entries and their values trace back to PubChem BioAssay AID1159580.

Test: chemical genetic growth profiling, strain panel (AID 1159580);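 further: tested at 20 µM; growth read once vehicle control cultures reached saturation at 30 °C; 1 = growth at the plate median or of vehicle wells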
Details: S. cerevisiae deletion strains, growth OD, locus YGL173C, strain kem1
Hit rate of the full screen: of about 5,500 compounds, about 2,000 (36%) were called active. Inconclusive results (about 18%) are left out. No stated cut-off is given here; in the data, active means normalized growth mostly below about 0.91 (no sharp cut-off); inconclusive means no clear call, values can overlap the other calls; inactive means mostly above about 0.92. Some of the results follow.
Pick one and only one: label 1 for active, label 0 for inactive

Q) What call does the record list for C=CC1C2=CCOC(=O)C2=COC1OC1OC(CO)C(O)C(O)C1O (stereo not given) ?
A) label 0

Q) What classification did OC1CC2CCCC(C1)N2Cc1ccccc1 (stereo not given) end up with in this test?
A) label 0

Q) What was the test verdict on CC(=O)OC(C)C[N+](C)(C)C (stereo not given) ?
A) label 0

Q) Which outcome was assigned to `COc1cc(O)c2c(=O)c(O)c(-c3ccc(O)c(O)c3)oc2c1` in this test?
A) label 1

Q) Outcome? `O=c1ccc2c(O)c3ccoc3cc2o1`
A) label 0

Q) Tell me the assay call for C[C@@H]1CC[C@@]2(NC1)O[C@H]1C[C@H]3C4CC=C5C[C@@H](O)CC[C@]5(C)C4CC[C@]3(C)C1[C@@H]2C (stereo not given in full) please.
A) label 1

Q) Write down the call the test reported for this compound. Item: CC1CC[C@@]2(OC1)O[C@H]1CC3C4CC[C@@H]5C[C@@H](O)CC[C@]5(C)C4CC[C@]3(C)[C@H]1[C@@H]2C (stereo not given in full)
A) label 0

Q) Query: recorded result category for C[C@@H]1O[C@@H](OC[C@H]2OC(Oc3c(-c4ccc(OCCO)c(OCCO)c4)oc4cc(OCCO)cc(O)c4c3=O)[C@H](O)[C@@H](O)[C@@H]2O)[C@H](O)[C@H](O)[C@H]1O (stereo not given in full) in this test
A) label 0

Q) Given CC(C)(C)NCC(O)c1cc(O)cc(O)c1 (stereo not given) , state the outcome it received in this test.
A) label 0

Q) Entry `CC[n+]1c(-c2ccccc2)c2cc(N)ccc2c2ccc(N)cc21` : call = ?
A) label 0

====

Assay: chemical genetic growth profiling, strain panel (AID 1159580);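 further: tested at 20 µM; growth read once vehicle control cultures reached saturation at 30 °C; 1 = growth at the plate median or of vehicle wells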
Settings: S. cerevisiae deletion strains, growth OD, locus YIL125W, strain kgd1, stronger effect = lower value
Out of some 5,500 compounds screened, about 2,000 (36%) were called active. Another 18% or so got no clear call; they are omitted. The list shows a part of the results.
Kindly state normalized growth for each of the entries shown.
Note: the reply should be a number with no unit written.

GET /value?item= CN[C@@H]1C(O)[C@@H](O[C@@H]2[C@@H](O)[C@H](O[C@H]3OC(CN)=CC[C@H]3N)[C@@H](N)C[C@H]2N)OC[C@]1(C)O (stereo partly specified) &field=normalized growth returns 1.01

Entry CC1(C)C(=O)C=C[C@@]2(C)C1C[C@@H](O)[C@]1(C)C2CC[C@@]2(C)[C@H](c3ccoc3)OC(=O)[C@H]3O[C@]321 (stereo partly specified) ; normalized growth = 0.985

Entry CC(C)c1c(O)ccc2c1CCC1[C@@](C)(CO)CCC[C@]21C (stereo partly specified) ; normalized growth = 0.973

According to the records, this compound `CNC(=O)Oc1cccc2c1OC(C)(C)O2` displays normalized growth of 1

Measured normalized growth of CC(C)C1COc2cc3oc(=O)ccc3cc2O1 (stereo unspecified) : 0.958

The reported value for `COc1c2ccoc2cc2oc(=O)ccc12` in terms of normalized growth is 0.869

# normalized growth of NC(=O)NCCCC(N)C(=O)O (stereo unspecified) = 0.987

Note to self: normalized growth recorded for `COc1ccc(Cl)cc1C(=O)NCCc1ccc(S(=O)(=O)NC(=O)NC2CCCCC2)cc1` was 0.998

The recorded normalized growth for entry CC(C)(C)NCC(O)c1cc(O)cc(O)c1 (stereo unspecified) equals 0.958

Data point: `COc1ccc(-c2cc(=O)c3c(O)cc(O[C@@H]4O[C@H](CO[C@H]5O[C@H](C)[C@@H](O)[C@H](O)[C@@H]5O)[C@@H](O)[C@H](O)[C@H]4O)cc3o2)cc1O` ; normalized growth = 1.01

Measured normalized growth of `CC[n+]1c(-c2ccccc2)c2cc(N)ccc2c2ccc(N)cc21` : 0.88
